- protocol: logP determination by HPLC on a reversed-phase column (C18), EEC Directive 79/831 Annex V.A8
- Type: physicochemical
- condition_context: HPLC-MS, reversed-phase column (C18)
Would you mind telling me the reported log P of each entry?
Numbers only.

Sample answers from the record:
Per the record, N#CC1(NC(=O)c2cc(-c3cnn(-c4ncc(C(F)(F)F)cc4C(F)(F)F)c3)ccc2Cl)CC1 has log P of 3.5

Per the record, CC[S+]([O-])c1cc(C(F)(F)F)cc(Cl)c1-n1cc(-c2ccc(Cl)c(C(=O)NC3CC3)c2)cn1 (stereo not shown) has log P of 3.0

Per the record, Cc1ncc(-c2cnn(-c3c(Cl)cc(C(F)(C(F)(F)F)C(F)(F)F)cc3Cl)c2)cc1C(=O)NC1CC1 has log P of 3.3

Per the record, N#Cc1cc(C(F)(F)F)cc(Cl)c1-n1cc(-c2ccc(Cl)c(C(=O)NC3CC3)c2)cn1 has log P of 3.1

Per the record, Cc1cc(C(F)(C(F)(F)F)C(F)(F)F)cc(C)c1-n1cc(-c2cnc(C)c(C(=O)NC3CC3)c2)cn1 has log P of 3.3

Lab note: each compound below needs its log P filled in.
1. CCc1cc(C(F)(C(F)(F)F)C(F)(F)F)cc(C)c1-n1cc(-c2cnc(Cl)c(C(=O)NC3(C#N)CC3)c2)cn1
2. Cc1ncc(-c2cnn(-c3c(Cl)cc(C(F)(C(F)(F)F)C(F)(F)F)cc3Cl)c2)cc1C(=O)NC1(C#N)CC1

Output:
4.1
3.4
